Source of measurements: paper PMC4012456

molecular target: murine muscle-type nAChR (Mus musculus, UniProt P02716+P04756+P09690+P20782); construct: expressed in transfected cells; host or cells: Xenopus laevis oocytes injected with plasmid DNA (CMV promoter); test: electrophysiology on muscle nAChR expressed in Xenopus laevis oocytes; type: cell-based; conditions: 10 μM compound; 10 μM acetylcholine; Xenopus oocytes
Sequence (P04756 21-457): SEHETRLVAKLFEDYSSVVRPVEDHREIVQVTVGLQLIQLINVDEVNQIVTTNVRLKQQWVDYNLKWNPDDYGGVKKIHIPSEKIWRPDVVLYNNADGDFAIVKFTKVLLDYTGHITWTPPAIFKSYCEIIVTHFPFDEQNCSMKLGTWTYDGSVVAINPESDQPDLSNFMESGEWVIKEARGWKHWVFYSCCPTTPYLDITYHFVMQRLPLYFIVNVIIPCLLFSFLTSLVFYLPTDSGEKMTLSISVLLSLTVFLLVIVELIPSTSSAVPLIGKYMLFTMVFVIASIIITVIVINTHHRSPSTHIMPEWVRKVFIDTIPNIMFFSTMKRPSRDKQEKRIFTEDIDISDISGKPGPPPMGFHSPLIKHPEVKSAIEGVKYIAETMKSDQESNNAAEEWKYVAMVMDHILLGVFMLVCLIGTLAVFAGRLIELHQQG
Sequence (P09690 24-501): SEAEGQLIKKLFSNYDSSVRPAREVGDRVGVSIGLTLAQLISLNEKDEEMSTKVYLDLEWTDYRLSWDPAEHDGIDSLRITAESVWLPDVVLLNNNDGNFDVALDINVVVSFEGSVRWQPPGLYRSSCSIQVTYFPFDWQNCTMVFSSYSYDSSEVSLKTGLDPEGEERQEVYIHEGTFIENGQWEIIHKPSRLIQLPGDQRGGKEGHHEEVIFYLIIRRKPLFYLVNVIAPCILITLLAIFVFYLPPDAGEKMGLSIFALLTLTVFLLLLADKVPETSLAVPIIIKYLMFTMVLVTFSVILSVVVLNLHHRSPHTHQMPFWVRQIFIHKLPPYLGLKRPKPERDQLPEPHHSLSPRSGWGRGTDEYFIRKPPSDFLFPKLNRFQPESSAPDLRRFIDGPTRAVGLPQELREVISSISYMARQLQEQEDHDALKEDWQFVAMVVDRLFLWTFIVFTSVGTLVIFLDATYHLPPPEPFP
Sequence (P02716 25-520): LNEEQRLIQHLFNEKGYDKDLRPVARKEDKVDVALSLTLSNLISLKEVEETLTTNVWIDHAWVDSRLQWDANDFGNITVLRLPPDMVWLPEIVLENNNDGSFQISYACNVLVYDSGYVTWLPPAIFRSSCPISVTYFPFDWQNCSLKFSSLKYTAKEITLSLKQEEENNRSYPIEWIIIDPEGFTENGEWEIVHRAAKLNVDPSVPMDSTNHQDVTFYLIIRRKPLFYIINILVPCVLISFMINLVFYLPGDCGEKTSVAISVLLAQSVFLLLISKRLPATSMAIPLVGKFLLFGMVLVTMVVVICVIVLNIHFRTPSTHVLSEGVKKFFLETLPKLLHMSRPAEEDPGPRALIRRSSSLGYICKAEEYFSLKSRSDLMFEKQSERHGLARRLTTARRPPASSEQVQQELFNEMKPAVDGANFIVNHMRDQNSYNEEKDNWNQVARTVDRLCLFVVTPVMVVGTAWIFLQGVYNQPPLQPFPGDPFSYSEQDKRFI
Sequence (P20782 21-493): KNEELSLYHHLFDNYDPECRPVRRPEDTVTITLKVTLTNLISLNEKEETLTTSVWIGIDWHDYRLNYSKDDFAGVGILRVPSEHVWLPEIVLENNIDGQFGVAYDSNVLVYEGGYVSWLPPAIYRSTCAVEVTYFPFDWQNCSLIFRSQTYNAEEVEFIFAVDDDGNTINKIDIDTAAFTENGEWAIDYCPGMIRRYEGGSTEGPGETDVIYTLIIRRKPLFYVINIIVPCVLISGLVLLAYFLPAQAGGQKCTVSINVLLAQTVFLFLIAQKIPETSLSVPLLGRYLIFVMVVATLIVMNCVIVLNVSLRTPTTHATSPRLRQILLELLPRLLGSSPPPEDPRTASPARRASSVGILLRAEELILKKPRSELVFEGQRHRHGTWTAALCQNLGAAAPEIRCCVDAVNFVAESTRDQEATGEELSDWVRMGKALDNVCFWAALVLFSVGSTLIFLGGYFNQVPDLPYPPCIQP
Experimental Readout: inhibition of agonist-evoked current on muscle nAChR (in words)

• COc1cc2ccnc3c2c(c1OC)NC=C3 = moderate activity
• COc1cc(CCN)c2c(c1OC)SSSSS2 = moderate activity
• Cn1cc2c3c1C(=O)C(N/C=C/c1ccc(O)cc1)=CC3=[N+](C)CC2 = almost completely
• CC/C=C/[C@@H]1CC[C@]2(C[C@H]3CC[C@H]4[C@@H](C(=O)OC(CC)CCCCCCCCCCCCC[C@@H]5O[C@](O)(CCN)[C@H](O)N(CCCN)C5=O)[C@@]5(CCC[C@H](C)O5)NC(=N2)N34)O1 (stereo partly drawn) = almost completely
• C[C@@H](N)[C@H](O)CCCCCCCC(=O)CCCCCCCCCCCCCC[C@@H](O[C@@H]1O[C@H](CO)[C@H](O)[C@H](O)[C@H]1O)[C@@H](C)N = almost completely
• C[C@@H](N)[C@H](O)CCCCCCCCCCCCCCC(=O)CCCCCCC[C@@H](O)[C@@H](C)N = almost completely
• C[C@@H]1C[C@@H]2c3cccc4[nH]c(Br)c(c34)C[C@H]2N(C)C1 = moderate activity

----------
Reported IC50 values for the following compounds.
target: murine muscle-type nAChR (Mus musculus, UniProt P02716+P04756+P09690+P20782); construct: expressed in transfected cells; host or cells: Xenopus laevis oocytes injected with plasmid DNA (CMV promoter); assay: electrophysiology on muscle nAChR expressed in Xenopus laevis oocytes; format: cell-based
Experimental Readout: IC50 (µM)

* C[C@@H](N)[C@H](O)CCCCCCCCCCCCCCC(=O)CCCCCCC[C@@H](O)[C@@H](C)N [Compound 2, aglycone of rhizochalin] | 2
* Cn1cc2c3c1C(=O)C(N/C=C/c1ccc(O)cc1)=CC3=[N+](C)CC2 [Compound 6, makaluvamine G] | 3.3
* COc1cc(CCN)c2c(c1OC)SSSSS2 [Compound 4, Varacin] | 8.7
* C[C@@H]1C[C@@H]2c3cccc4[nH]c(Br)c(c34)C[C@H]2N(C)C1 [Compound 3, pibocin] | 3.7
